molecular target: DabiOBP5 (Dioryctria abietella, UniProt A0A8E6HS34); assay: Competitive fluorescence binding assay with 1-NPN probe, recombinant DabiOBP5; settings: ligand at 20 μM; DabiOBP5/1-NPN each 2 μM; Tris-HCl pH 7.4; NB = no binding; read-out: OBP5 F.D. (%) fluorescence displacement percent
Sequence (A0A8E6HS34 19-139): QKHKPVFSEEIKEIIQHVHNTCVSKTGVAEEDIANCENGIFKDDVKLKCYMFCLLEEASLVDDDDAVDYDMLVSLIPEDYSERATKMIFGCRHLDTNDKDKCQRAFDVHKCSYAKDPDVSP
metric: inhibition at 20 µM (%)
Answer in %, number only, no unit symbol.

Look over these answered cases.
{"molecule": "CC(C)=CCC/C(C)=C/CC/C(C)=C/CO", "inhibition at 20 µM, %": 36.3}
{"molecule": "O=[N+]([O-])NC1=NCCN1Cc1ccc(Cl)nc1", "inhibition at 20 µM, %": 22.5}
{"molecule": "CCCCCC=O", "inhibition at 20 µM, %": 39.3}
{"molecule": "CCCCOC(C)=O [Butyl acetate]", "inhibition at 20 µM, %": 31.6}
{"molecule": "CCCC(=O)CC", "inhibition at 20 µM, %": 25.3}
{"molecule": "CCCCCCCCCCC", "inhibition at 20 µM, %": 4.42}

# next molecule below
Challenge: Please list inhibition at 20 µM recorded for the molecule CC(=O)CCC=C(C)C
Response given: 40.3

---

molecular target: DabiOBP5 (Dioryctria abietella, UniProt A0A8E6HS34); experiment: Competitive fluorescence binding assay with 1-NPN probe, recombinant DabiOBP5; settings: pH 7.4, read-out: OBP5 F.D. (%) fluorescence displacement percent
metric: inhibition at 20 µM (%)
Answer in %, number only, no unit symbol.

{"molecule": "C=C(C)[C@H]1Cc2c(ccc3c2O[C@@H]2COc4cc(OC)c(OC)cc4[C@@H]2C3=O)O1", "inhibition at 20 µM (%)": 56}
{"molecule": "CCOCn1c(-c2ccc(Cl)cc2)c(C#N)c(Br)c1C(F)(F)F", "inhibition at 20 µM (%)": 62}
{"molecule": "CCOP(=S)(OCC)O/N=C(\\C#N)c1ccccc1", "inhibition at 20 µM (%)": 82}

Challenge: Please list inhibition at 20 µM recorded for the molecule CCOP(=S)(OCC)Oc1nc(Cl)c(Cl)cc1Cl
Response given: 66.1

---

test system: DabiOBP14; type: binding, Dioryctria abietella; conditions: ligand at 20 μM; DabiOBP14/1-NPN each 2 μM; Tris-HCl pH 7.4; NB = no binding
Lab note: anything with OBP14 F.D. (%) fluorescence displacement percent below 30% is marked class 1; values at 30% or higher are marked class 0.

{"molecule": "O=C(Oc1ccccc1)c1ccccc1 [Phenyl benzoate]", "cat": "class 0"}

Challenge: Here's an entry: CCCCCCCCCCCCO . Is its OBP14 F.D. (%) fluorescence displacement percent below 30%?
Response given: class 1

Challenge: Here's an entry: CCCCCCCCCCO . Is its OBP14 F.D. (%) fluorescence displacement percent below 30%?
Response given: class 0

Challenge: Here's an entry: CCCCCCCCCCC=O . Is its OBP14 F.D. (%) fluorescence displacement percent below 30%?
Response given: class 0

Challenge: Here's an entry: CCCCCCCCCCOC(C)=O [Decyl acetate] . Is its OBP14 F.D. (%) fluorescence displacement percent below 30%?
Response given: class 1

Challenge: Here's an entry: CCOC(C)=O [Ethyl acetate] . Is its OBP14 F.D. (%) fluorescence displacement percent below 30%?
Response given: class 1

Challenge: Here's an entry: CCCCCCCC=O . Is its OBP14 F.D. (%) fluorescence displacement percent below 30%?
Response given: class 0

Challenge: Here's an entry: CC1=CC=C(C(C)C)CC1 . Is its OBP14 F.D. (%) fluorescence displacement percent below 30%?
Response given: class 1

Challenge: Here's an entry: CCOP(=S)(OCC)Oc1nc(Cl)c(Cl)cc1Cl . Is its OBP14 F.D. (%) fluorescence displacement percent below 30%?
Response given: class 0

Challenge: Here's an entry: CCCCC=CCCO . Is its OBP14 F.D. (%) fluorescence displacement percent below 30%?
Response given: class 0

Challenge: Here's an entry: CCCCCCCCCOC(C)=O [Nonyl acetate] . Is its OBP14 F.D. (%) fluorescence displacement percent below 30%?
Response given: class 1

Challenge: Here's an entry: CCCCCCC=O . Is its OBP14 F.D. (%) fluorescence displacement percent below 30%?
Response given: class 1

Challenge: Here's an entry: C=CC(C)(O)CCC=C(C)C (stereo not shown) . Is its OBP14 F.D. (%) fluorescence displacement percent below 30%?
Response given: class 0

Challenge: Here's an entry: CCCCCCC . Is its OBP14 F.D. (%) fluorescence displacement percent below 30%?
Response given: class 1

Challenge: Here's an entry: CC(C)=CCC/C(C)=C/CC/C(C)=C/CC/C=C(\C)CC/C=C(\C)CCC=C(C)C . Is its OBP14 F.D. (%) fluorescence displacement percent below 30%?
Response given: class 1

Challenge: Here's an entry: CCCCCCCCCCCCCC . Is its OBP14 F.D. (%) fluorescence displacement percent below 30%?
Response given: class 1
